Test system: ZIKV-induced caspase 3/7 activity in SNB-19 cells
PROCEDURE_DETAILS: Caspase 3/7 activity assay, ZIKV-infected SNB-19 cells
Format: cell-based
MEASUREMENT_SETUP: Homo sapiens; ZIKV-infected SNB-19 cells; read-out: Caspase 3 (IC50, uM) SNB-19
Structures can show the parent of a compound that is named as a salt.
Let's look at some molecules and their measured IC50.
Give your result in µM as a bare value.

molecule="C[C@H](NC(=O)C(=O)Nc1ccccc1C(C)(C)C)C(=O)N[C@@H](CC(=O)O)C(=O)COc1c(F)c(F)cc(F)c1F [Emricasan]" value=0.62
molecule="N#CC1(c2ccc(NC(=O)c3cccnc3NCc3ccncc3)cc2)CCCC1 [Apatinib]" value=24.5
molecule="CN1CCN(c2cc3c(nn2)Oc2ccccc2N3C)CC1 [Pipofezine]" value=15.1
molecule="COc1ccc([C@@H]2CC(=O)c3c(O)cc(O)cc3O2)cc1O [Hesperetin]" value=17.3
molecule="COc1cc2nc(N3CCN(C(=O)C4CCCO4)CC3)nc(N)c2cc1OC (stereo not drawn) [Terazosin hydrochloride]" value=17.3

Dear colleague, I am looking for the recorded IC50 of the following molecule: O=C(O)CCC(=O)c1ccc(-c2ccccc2)cc1 [Fenbufen]
24.5

Dear colleague, I am looking for the recorded IC50 of the following molecule: O=c1c(-c2ccc(O)cc2)coc2cc(O[C@@H]3O[C@H](CO)[C@@H](O)[C@H](O)[C@H]3O)cc(O)c12 [Genistin]
23.1

Dear colleague, I am looking for the recorded IC50 of the following molecule: CC(C(=O)O)c1ccc(C(=O)c2ccccc2)s1 (stereo not drawn) [Tiaprofenic acid]
10.3

Dear colleague, I am looking for the recorded IC50 of the following molecule: Cc1cccc(C#Cc2ccccc2)n1 [MPEP, 2-Methyl-6-(phenylethynyl)pyridine]
5.18

Dear colleague, I am looking for the recorded IC50 of the following molecule: CC(C(=O)O)c1ccc(C(=O)c2cccs2)cc1 (stereo not drawn) [Suprofen]
17.3

Dear colleague, I am looking for the recorded IC50 of the following molecule: CN(C)CCCSc1ccccc1NC(=O)/C=C/c1ccccc1 [Cinanserin]
12.3

Dear colleague, I am looking for the recorded IC50 of the following molecule: O=C(O)c1cc([N+](=O)[O-])ccc1NCCCc1ccccc1
13

Dear colleague, I am looking for the recorded IC50 of the following molecule: Cc1oncc1C(=O)Nc1ccc(C(F)(F)F)cc1 [Leflunomide]
3.27

Dear colleague, I am looking for the recorded IC50 of the following molecule: O=C(O)[C@@H](c1ccc(OCc2ccc3ccccc3n2)cc1)C1CCCC1 [Veliflapon]
13.8

Dear colleague, I am looking for the recorded IC50 of the following molecule: Nc1nc2ccc([N+](=O)[O-])cc2s1 [2-Amino-6-nitrobenzothiazole]
53.1

Dear colleague, I am looking for the recorded IC50 of the following molecule: COc1ccc(-c2cc(=S)ss2)cc1 [Anethole trithione]
15.5

Dear colleague, I am looking for the recorded IC50 of the following molecule: O=C(OCc1ccccc1)c1ccc(O)cc1 [Benzylparaben]
19.5

Dear colleague, I am looking for the recorded IC50 of the following molecule: Nc1ccc(/N=N/c2ccccc2)c(N)n1 [Phenazopyridine hydrochloride]
16.4

Dear colleague, I am looking for the recorded IC50 of the following molecule: O=C(c1ccccc1)c1ccc2n1CCC2C(=O)O (stereo not drawn) [Ketorolac tromethamine]
17.3

Dear colleague, I am looking for the recorded IC50 of the following molecule: Clc1ccccc1-c1nc(-c2ccncc2)no1 [Pifexole]
8.2

Dear colleague, I am looking for the recorded IC50 of the following molecule: O=c1c2ccccc2nc2n1CCc1c-2[nH]c2ccccc12 [Rutaecarpine]
5.18

Dear colleague, I am looking for the recorded IC50 of the following molecule: CC(=O)Oc1cccc2c1C(=O)c1c(OC(C)=O)cc(C(=O)O)cc1C2=O [Diacerein]
17.3

Dear colleague, I am looking for the recorded IC50 of the following molecule: COc1ccc(-c2coc3cc(O)ccc3c2=O)cc1 [Formononetin]
12.3

Dear colleague, I am looking for the recorded IC50 of the following molecule: CCC(C(=O)O)c1ccc(N2Cc3ccccc3C2=O)cc1 (stereo not drawn) [Indobufen]
7.74

Dear colleague, I am looking for the recorded IC50 of the following molecule: O=C1C[C@@H](c2ccc(O)cc2)Oc2cc(O)cc(O)c21 [Naringenin]
15.5

Dear colleague, I am looking for the recorded IC50 of the following molecule: COc1ccc(/C=C/C(=O)Nc2ccccc2C(=O)O)cc1OC [Tranilast]
17.3

Dear colleague, I am looking for the recorded IC50 of the following molecule: O=C(Nc1ncc([N+](=O)[O-])s1)c1cccs1 [Tenonitrozole]
1.95

Values from patent US10940188B2
